Exercise: for every item that follows, state its recorded sfGFP reporter fluorescence.
B1: library; numbered along this chain (parent)
chain: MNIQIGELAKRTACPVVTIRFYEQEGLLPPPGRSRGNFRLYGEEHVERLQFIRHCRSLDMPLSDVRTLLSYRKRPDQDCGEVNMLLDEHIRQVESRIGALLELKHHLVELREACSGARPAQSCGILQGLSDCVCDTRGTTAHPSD

variants of: B1; test: sfGFP reporter fluorescence (15 h) (µM FITC); higher = higher leak; conditions: library round: Round 0; ligand: none
Answers are plain numbers.

[[record]]
mutation_name = "D135M"
endpoint_label = "sfGFP reporter fluorescence"
meas_value = 0.0636

[[record]]
mutation_name = "K104A"
endpoint_label = "sfGFP reporter fluorescence"
meas_value = 0.0597

[[record]]
mutation_name = "R39A"
endpoint_label = "sfGFP reporter fluorescence"
meas_value = 0.0651

[[record]]
mutation_name = "R111S"
endpoint_label = "sfGFP reporter fluorescence"
meas_value = 0.061

[[record]]
mutation_name = "L129F"
endpoint_label = "sfGFP reporter fluorescence"
meas_value = 0.0559

[[record]]
mutation_name = "L27H"
endpoint_label = "sfGFP reporter fluorescence"
meas_value = 0.0623

[[record]]
mutation_name = "K104F"
endpoint_label = "sfGFP reporter fluorescence"
meas_value = 0.0581

[[record]]
mutation_name = "I3N"
endpoint_label = "sfGFP reporter fluorescence"
meas_value = 0.0599


Here are 4 variants. What values of sfGFP reporter fluorescence were reported for them?
1. I90V
2. E109D
3. F21L
4. L85R

0.059
0.0597
0.0612
0.0596

Ref: the supplement of paper PMC12783771
